- Test system: SW837
- experiment: CellTiterGlo Cell Proliferation Assay, SW837
- Type: cell-based
- measurement_parameters: Homo sapiens, KRas G12C, Rectum, 96 hr, read-out: IC50 (μM) in 2 D cell proliferation
outcome_measure: IC50 (µM)

In [3]: df
Out[3]:
                                   compound  endpoint_value
0  C=CC(=O)N1CCN(c2ncnc3c(F)c(-c4ccc(F)c5sc(N)nc45)c(Cl)cc23)CC1 [Example 1]           0.169

----------
- System: H1792
- experiment: CellTiterGlo Cell Proliferation Assay, H1792
- Assay type: cell-based
- measurement_parameters: Homo sapiens, NCI-H1792, KRas G12C, Lung, 96 hr, read-out: IC50 (μM) in 2 D cell proliferation
outcome_measure: IC50 (µM)

In [3]: df
Out[3]:
                                   compound  outcome_measure  endpoint_value
0  C=CC(=O)N1CCN(c2ncnc3c(F)c(-c4ccc(F)c5sc(N)nc45)c(Cl)cc23)CC1 [Example 1]             IC50            3.93
